System: Hepatotoxicity
Assay text: FDA HLAED, alkaline phosphatase increase
Assay conditions: human
Measurement type: Alkaline Phosphatase Increase - Number of Reports

1) FC(F)OC(F)C(F)(F)F (stereo not drawn) = < 4
2) CC[C@H]1OC(=O)[C@H](C)[C@@H](O[C@H]2C[C@@](C)(OC)[C@@H](O)[C@H](C)O2)[C@H](C)[C@@H](O[C@@H]2O[C@H](C)C[C@H](N(C)C)[C@H]2O)[C@](C)(O)C[C@@H](C)C(=O)[C@H](C)[C@@H](O)[C@]1(C)O = >= 4
3) CCN[C@H]1C[C@H](C)S(=O)(=O)c2sc(S(N)(=O)=O)cc21 [DORZOLAMIDE] = < 4
4) Cc1nnc2n1-c1ccc(Cl)cc1C(c1ccccc1)=NC2 = >= 4
5) CC(C)(C)NCC(O)COc1cccc2c1CC(O)C(O)C2 (stereo not drawn) = < 4
6) C[C@]12CC[C@@H]3c4ccc(O)cc4CC[C@H]3[C@@H]1CC[C@@H]2O = >= 4
7) O=c1n(CCCN2CCN(c3cccc(Cl)c3)CC2)nc2ccccn12 = < 4
8) COc1cc(N)c(Cl)cc1C(=O)NC1CCN(CCCOc2ccc(F)cc2)CC1OC (stereo not drawn) [CISAPRIDE] = >= 4

Taken from ChEMBL document CHEMBL1697781.
